Assayed Target: Mcl-1 protein (UniProtKB Q07820) (Homo sapiens (Human), UniProt Q07820)
Sequence (Q07820 whole entry): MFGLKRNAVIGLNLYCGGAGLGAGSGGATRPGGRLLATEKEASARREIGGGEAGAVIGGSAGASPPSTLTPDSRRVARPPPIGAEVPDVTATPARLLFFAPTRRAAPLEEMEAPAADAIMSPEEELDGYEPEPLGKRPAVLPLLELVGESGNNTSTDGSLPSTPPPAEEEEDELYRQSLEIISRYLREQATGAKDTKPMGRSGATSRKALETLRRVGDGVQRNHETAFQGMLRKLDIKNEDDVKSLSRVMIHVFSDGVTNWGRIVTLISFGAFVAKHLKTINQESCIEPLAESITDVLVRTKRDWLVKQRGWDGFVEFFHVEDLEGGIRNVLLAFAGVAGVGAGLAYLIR
Assay Explanation: Inhibition of Mcl-1 by the fluorescence polarisation assay (Example A, Method A)
Condition Details: fluorescence polarization assay
Description: The relative binding potency of each compound was determined via Fluorescence Polarisation (FP). The method utilised a Fluorescein labelled ligand (Fluorescein-βAla-Ahx-A-REIGAQLRRMADDLNAQY-OH; MW 2,765) which binds to the Mcl-1 protein (such that Mcl-1 corresponds to the UniProtKB® primary accession number: Q07820) leading to an increased anisotropy measured in milli-polarisation (mP) units using a reader. […]
pKi: −log10 of the molar value.
Known pKi of a selection of compounds
Readout Name: pKi

[[record]]
compound = "C[C@@H](COc1ccnc2c1CCC[C@@H]2O)C[C@H]1Cc2ccccc2[C@]12CC[C@@](Nc1cccc(Cl)c1)(C(=O)O)CC2"
assayed_target = "Mcl-1 protein (UniProtKB Q07820) (Homo sapiens (Human), UniProt Q07820)"
numeric_value = 7.49

[[record]]
compound = "CC(C)c1cncnc1OCCCC1Cc2ccccc2[C@]12CC[C@@](Nc1cccc(Cl)c1)(C(=O)O)CC2 (mixture of isomers)"
assayed_target = "Mcl-1 protein (UniProtKB Q07820) (Homo sapiens (Human), UniProt Q07820)"
numeric_value = 6.49

[[record]]
compound = "O=C(O)[C@]1(Nc2cccc(Cl)c2)CC[C@]2(CC1)C(CC(CO)COc1ccnc3ccsc13)=Cc1ccccc12 (stereo partly shown)"
assayed_target = "Mcl-1 protein (UniProtKB Q07820) (Homo sapiens (Human), UniProt Q07820)"
numeric_value = 6.81

[[record]]
compound = "O=C(O)[C@]1(Nc2cccc(Cl)c2)CC[C@@]2(CC1)c1ccccc1CC2c1ccc(OCc2ccccc2)cc1 (single isomer, unassigned) [Example 353]"
assayed_target = "Mcl-1 protein (UniProtKB Q07820) (Homo sapiens (Human), UniProt Q07820)"
numeric_value = 5.06

[[record]]
compound = "Cc1n[nH]c2cccc(OCCCC3Cc4ccccc4[C@]34CC[C@@](Nc3cccc(Cl)c3)(C(=O)O)CC4)c12 (mixture of isomers)"
assayed_target = "Mcl-1 protein (UniProtKB Q07820) (Homo sapiens (Human), UniProt Q07820)"
numeric_value = 6.50

[[record]]
compound = "O=C(O)[C@]1(Nc2cccc(Cl)c2)CC[C@]2(CC1)C(c1ccsc1)=Cc1ccccc12"
assayed_target = "Mcl-1 protein (UniProtKB Q07820) (Homo sapiens (Human), UniProt Q07820)"
numeric_value = 5.67

[[record]]
compound = "O=C(O)[C@]1(Nc2cccc(Cl)c2)CC[C@@]2(CC1)c1ccccc1CC2CCCOc1ccc(F)cc1 (stereo partly shown)"
assayed_target = "Mcl-1 protein (UniProtKB Q07820) (Homo sapiens (Human), UniProt Q07820)"
numeric_value = 6.32

